tested on: PfAP2-EXP AP2 domain (GST-tagged); experiment: gcPBM binding intensity (ln(normalized median fluorescence intensity)); higher = stronger DNA binding
Whole data set: some 25,000 sequences, median “ln(normalized median fluorescence intensity)” near 8.6, cut for the highest 2% near 10. Many of the other results were omitted from the sample, so the highest values are more common in it than they were.
Mark criterion not met for gcPBM binding intensity (ln) values under 9, and criterion met for everything at or above.

TATATATATATATATTGTACACATACATGTAGTTTT [XGTACX_site4848] | criterion met
GTATATATATATATATATATATATTTTTATTTATTT [CACACA_negctrl_site589] | criterion not met
ATATATATATATATATATATAATTTTTTTTGTTTTT [TGCATGCA_negctrl_site453] | criterion met
AATGATTTTAAATGAACATAATTTATATTCATAACA [GTGCAC_negctrl_site256] | criterion not met
ATATATTTATTTATATGTACATATTATATATTATAG [XGTACX_site3371] | criterion not met
AGAGAAGAAAACAAAACACACACATATATCTTAATA [CACACA_site8699] | criterion not met

Ask: Tell me whether gcPBM binding intensity (ln) is at least 9 here: TGCAATTGTAAAGGCGCACACATATATATATATATA [CACACA_site4894]
Result: criterion met

Ask: Then what about the sequence TATTTACAAAAAAAATATAAAAAATATAAAATATAT [CACACA_negctrl_site575] ?
Result: criterion not met

Ask: Then what about the sequence AAGTATTTTTTTACATGTACATATATATATATATAT [XGTACX_site5065] ?
Result: criterion met

Ask: Then what about the sequence TTCAAATTGTTTATATGTACTTATAAAAATTGTCTG [XGTACX_site977] ?
Result: criterion not met

Ask: Then what about the sequence GTATATATTTTTATTTAATAATTTGTTTATTTATTC [CACACA_negctrl_site647] ?
Result: criterion not met

###

tested on: PfAP2-EXP AP2 domain (GST-tagged); experiment: gcPBM binding intensity (ln(normalized median fluorescence intensity)); higher = stronger DNA binding
Over roughly 25,000 sequences, “ln(normalized median fluorescence intensity)” has its median near 8.6; the highest 2% begin near 10. The entries come from a sample that favours the highest values as a whole.
Recorded gcPBM binding intensity (ln) by entry

Below, each entry is followed by its recorded gcPBM binding intensity (ln) result.
TTTTCATTTTTCTTTACACACATATATATATATATA [CACACA_site2236] | 10.2
TATTATTTTTCATATGCATGCAAAAATAAAAAAATA [TGCATGCA_site350] | 9.63

Ask: // gcPBM binding intensity (ln) lookup, key: AATACCCAAGGACACACACACACATATATATATATA [CACACA_site8345]
Result: 10.2

Ask: Then what about the sequence ATTTTAGGAAAAAAAAGTACATATAATTTTTTATAT [XGTACX_site6954] ?
Result: 8.19

Ask: Then what about the sequence ATTTTTATAGAATGAACACACATATTATAGCATTTA [CACACA_site6842] ?
Result: 8.45

###

test system: PfAP2-EXP AP2 domain (GST-tagged); test: gcPBM binding intensity (ln(normalized median fluorescence intensity)); higher = stronger DNA binding
Over roughly 25,000 sequences, “ln(normalized median fluorescence intensity)” has its median near 8.6; the highest 2% begin near 10. The list comes from a sample in which the highest values are over-represented; it also holds close analogues and randomly drawn sequences.
Measured metric: gcPBM binding intensity (ln)

TAATATCTACATATATGTACATATATATATATATAT [XGTACX_site7979] | 9.94
ATGTATGTGTATATATGTACATAATATATATCTTTT [XGTACX_site8666] | 8.65
ATAATATATGAAAGTGGTACACAAAGGAAAATAAAA [XGTACX_site333] | 9.14
ATATATATATATATATGGTAAAGTAAAAGGAAATAC [XGTACX_negctrl_site45] | 10.3
TATTATTTTTTTATTCTATTAAAAAGAAAAAAATGA [CACACA_negctrl_site407] | 7.95

Ask: // gcPBM binding intensity (ln) lookup, key: AAATGTATATATGTATGTACATATATATATATATAT [XGTACX_site5778]
Result: 10

Ask: Then what about the sequence ATATATCTACATATATGTACATATATGTATATGTAT [XGTACX_site5432] ?
Result: 8.41

Ask: Then what about the sequence TGATAATTTCATTTTGCATGTGACAATACAAGATGT [TGCATGCA_site203] ?
Result: 8.59

Ask: Then what about the sequence ATTATAAATTAAAATACACACATATATACCTAATAT [CACACA_site5541] ?
Result: 8.47

Ask: Then what about the sequence ATAAAAATGGTGTTAACACACACATATATATATATA [CACACA_site8089] ?
Result: 10.1

Ask: Then what about the sequence TATACATATTTGTATTGTACATAAACTAAATCTTCA [XGTACX_site610] ?
Result: 8.21
